Target: canine CD3 on canine T cells (canine PBMC) (canine, UniProt P27597 22-202)
Sequence (P27597 22-202 limits assumed, chain 1 of 3): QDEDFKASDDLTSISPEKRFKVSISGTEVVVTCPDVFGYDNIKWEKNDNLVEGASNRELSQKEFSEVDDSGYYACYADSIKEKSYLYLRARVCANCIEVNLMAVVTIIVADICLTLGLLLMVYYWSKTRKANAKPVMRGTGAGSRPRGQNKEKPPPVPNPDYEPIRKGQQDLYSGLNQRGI
Sequence (chain, as listed by the source limits assumed, chain 2 of 3): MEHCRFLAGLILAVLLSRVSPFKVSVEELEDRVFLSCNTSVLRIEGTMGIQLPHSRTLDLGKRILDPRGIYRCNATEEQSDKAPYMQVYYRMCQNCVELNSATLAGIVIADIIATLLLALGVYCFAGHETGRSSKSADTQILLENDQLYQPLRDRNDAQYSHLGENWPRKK
Sequence (chain, as listed by the source limits assumed, chain 3 of 3): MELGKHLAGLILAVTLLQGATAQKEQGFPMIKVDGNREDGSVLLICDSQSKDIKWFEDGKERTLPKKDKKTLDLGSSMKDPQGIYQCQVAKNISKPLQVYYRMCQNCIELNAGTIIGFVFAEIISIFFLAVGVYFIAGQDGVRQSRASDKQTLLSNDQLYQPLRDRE
Test: cell-based or functional assay

{"columns": ["binder", "Ki67 Proliferation, Day 9, PB"],
 "data": [
  ["PMX197 (monospecific anti-canine CD3, canine IgG-B effector function deficient Fc) (antibody, V domains shown) VH: ELTLQESGPGLVKPSQTLSLTCLVSGGSVTRSYYWNWIRQRPGRGLEWMGYWTGSTNYNPAFQGRISIIPDTAKNQFSLQLTSMTTDDTAIYFCAREGGRTLGAFADWGQGTLVTVSS VL: SYVLTQLPSKNVTLKQPAHITCGGDKIGSKNVHWYQQKLGQAPVLIIYYDSSRPTGIPERFSGANSGNTATLTISGALAEDEADYYCQVWDSSAKASVFGGGTHLTVL", 0]
]}
